From: patent EP4570800A1

- assayProcedure: Dynamic solubility in water, SGF, FaSSIF and FeSSIF
- conditionLabel: pH value of the filtrate; FeSSIF, 24 hours
Counter-ions that a name gives are not always drawn.
measuredEndpoint: pH

* Cc1nc(N[C@H](C)c2cccc(S(F)(F)(F)(F)F)c2)c2cn(C3(CF)CC3)c(=O)cc2n1 [Crystal form B of citrate salt] | 4.5
* Cc1nc(N[C@H](C)c2cccc(S(F)(F)(F)(F)F)c2)c2cn(C3(CF)CC3)c(=O)cc2n1 [Crystal form A of ethanesulfonate salt] | 4.7
* Cc1nc(N[C@H](C)c2cccc(S(F)(F)(F)(F)F)c2)c2cn(C3(CF)CC3)c(=O)cc2n1 [Crystal form A of fumarate salt] | 4.7
* Cc1nc(N[C@H](C)c2cccc(S(F)(F)(F)(F)F)c2)c2cn(C3(CF)CC3)c(=O)cc2n1 [Crystal form A of methanesulfonate salt] | 4.8

* * *

- assayProcedure: Plasma protein binding rate by equilibrium dialysis
- Assay type: in vitro ADME
- conditionLabel: mouse plasma, compound 1 µM, equilibrium dialysis 37°C, read-out: free fraction in plasma, Mouse (%)
- Description: Plasma protein binding rate of compounds was detected by equilibrium dialysis (HTDialysis, HTD 96b). The compound was prepared into a […] stock solution with DMSO, and then 25-fold diluted with 0.05 M sodium phosphate buffer as a working solution. […] Plasma protein binding rate and free fraction were calculated using the following formulas: % binding rate = 100 × ([supply-side concentration]5h - [receiver-side concentration]5h)/[supply-side concentration]5h. % free fraction = 100 - % binding rate
measuredEndpoint: fraction unbound at 5 h, 1 µM

* Cc1nc(N[C@H](C)c2cccc(S(F)(F)(F)(F)F)c2)c2cn(C3(CF)CC3)c(=O)cc2n1 | 0.011

* * *

- measuredOn: CYP3A4 (Homo sapiens)
- Construct: A human liver microsome solution at a concentration of 0.2 mg/mL was prepared; from tissue; host or cells: human liver microsomes
- Sequence (P08684 whole entry): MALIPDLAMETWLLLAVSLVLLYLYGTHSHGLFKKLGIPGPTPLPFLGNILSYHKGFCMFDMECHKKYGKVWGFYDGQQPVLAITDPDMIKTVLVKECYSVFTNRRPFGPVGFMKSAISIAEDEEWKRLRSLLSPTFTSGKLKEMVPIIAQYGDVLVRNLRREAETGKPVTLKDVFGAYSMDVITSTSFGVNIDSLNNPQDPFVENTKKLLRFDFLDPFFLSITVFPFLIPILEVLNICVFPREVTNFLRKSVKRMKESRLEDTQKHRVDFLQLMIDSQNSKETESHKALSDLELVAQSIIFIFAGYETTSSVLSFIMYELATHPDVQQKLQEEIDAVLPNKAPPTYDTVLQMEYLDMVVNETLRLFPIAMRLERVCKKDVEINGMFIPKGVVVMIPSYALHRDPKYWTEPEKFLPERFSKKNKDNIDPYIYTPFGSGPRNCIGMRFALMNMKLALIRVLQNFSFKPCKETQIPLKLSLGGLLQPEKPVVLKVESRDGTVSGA
- assayProcedure: Cytochrome P450 inhibition test (CYP3A4, substrates midazolam and testosterone)
- Format: in vitro ADME
- conditionLabel: pH 7.4, probe midazolam; compound 10 µM; substrate midazolam; human liver microsomes; read-out: CYP inhibition rate (%) CYP3A4 (midazolam)
measuredEndpoint: inhibition at 5 min, 10 µM (%)

* Cc1nc(N[C@H](C)c2cccc(S(F)(F)(F)(F)F)c2)c2cn(C3(CF)CC3)c(=O)cc2n1 | 0

* * *

- assayProcedure: Dynamic solubility in water, SGF, FaSSIF and FeSSIF
- conditionLabel: pH value of the filtrate; H2O, 24 hours
Counter-ions that a name gives are not always drawn.
measuredEndpoint: pH

• Cc1nc(N[C@H](C)c2cccc(S(F)(F)(F)(F)F)c2)c2cn(C3(CF)CC3)c(=O)cc2n1 [Crystal form A of ethanesulfonate salt] = 2.8
• Cc1nc(N[C@H](C)c2cccc(S(F)(F)(F)(F)F)c2)c2cn(C3(CF)CC3)c(=O)cc2n1 [Crystal form A of methanesulfonate salt] = 3.1
• Cc1nc(N[C@H](C)c2cccc(S(F)(F)(F)(F)F)c2)c2cn(C3(CF)CC3)c(=O)cc2n1 [Crystal form B of citrate salt] = 3.3
• Cc1nc(N[C@H](C)c2cccc(S(F)(F)(F)(F)F)c2)c2cn(C3(CF)CC3)c(=O)cc2n1 [Crystal form A of fumarate salt] = 4.1

* * *

The following compounds are shown together with reported S: solubility values.
- assayProcedure: Dynamic solubility in water, SGF, FaSSIF and FeSSIF
- conditionLabel: H2O, 4 hours, 37°C, solid feed concentration 10 mg/mL; 240 min
Counter-ions that a name gives are not always drawn.
measuredEndpoint: S: solubility

* Cc1nc(N[C@H](C)c2cccc(S(F)(F)(F)(F)F)c2)c2cn(C3(CF)CC3)c(=O)cc2n1 [Crystal form B of citrate salt] | 3600 µg/mL
* Cc1nc(N[C@H](C)c2cccc(S(F)(F)(F)(F)F)c2)c2cn(C3(CF)CC3)c(=O)cc2n1 [Crystal form A of ethanesulfonate salt] | 9810 µg/mL
* Cc1nc(N[C@H](C)c2cccc(S(F)(F)(F)(F)F)c2)c2cn(C3(CF)CC3)c(=O)cc2n1 [Crystal form A of methanesulfonate salt] | 10160 µg/mL
* Cc1nc(N[C@H](C)c2cccc(S(F)(F)(F)(F)F)c2)c2cn(C3(CF)CC3)c(=O)cc2n1 [Crystal form A of fumarate salt] | 570 µg/mL

* * *

- assayProcedure: Mouse pharmacokinetic test (oral gavage)
- Format: in vivo
- conditionLabel: plasma, male ICR mice, oral administration by gavage, 10 mg/kg
- Procedure: Male ICR mice (20 to 25 g) were used, and fasted overnight. Three mice were taken and orally administered by gavage (10 mg/kg). Blood was collected before the administration, and at 15 min, 30 min, 1 h, 2 h, 4 h, 8 h, and 24 h after the administration. 6,800 g of the blood samples were centrifuged at 2 to 8°C for 6 min, and plasma was collected and stored at -80°C. […] The main pharmacokinetic parameters were analyzed using WinNonlin 7.0 software with non-compartmental model.
measuredEndpoint: Cmax (ng/mL)

- Cc1nc(N[C@H](C)c2cccc(S(F)(F)(F)(F)F)c2)c2cn(C3(CF)CC3)c(=O)cc2n1 [Compound of formula I]: 1440

* * *

- assayProcedure: Dynamic solubility in water, SGF, FaSSIF and FeSSIF
- conditionLabel: FaSSIF, 1 hour, 37°C, solid feed concentration 10 mg/mL; 60 min
Where a name gives a salt, the structure may show the parent alone.
Overview of reported S: solubility across a group of compounds:
measuredEndpoint: S: solubility (µg/mL)

- Cc1nc(N[C@H](C)c2cccc(S(F)(F)(F)(F)F)c2)c2cn(C3(CF)CC3)c(=O)cc2n1 [Crystal form A of ethanesulfonate salt]: 620
- Cc1nc(N[C@H](C)c2cccc(S(F)(F)(F)(F)F)c2)c2cn(C3(CF)CC3)c(=O)cc2n1 [Crystal form A of fumarate salt]: 360
- Cc1nc(N[C@H](C)c2cccc(S(F)(F)(F)(F)F)c2)c2cn(C3(CF)CC3)c(=O)cc2n1 [Crystal form A of methanesulfonate salt]: 1440
- Cc1nc(N[C@H](C)c2cccc(S(F)(F)(F)(F)F)c2)c2cn(C3(CF)CC3)c(=O)cc2n1 [Crystal form B of citrate salt]: 790

* * *

- assayProcedure: Dynamic solubility in water, SGF, FaSSIF and FeSSIF
- conditionLabel: pH value of the filtrate; SGF, 1 hour
Where a name gives a salt, the structure may show the parent alone.
measuredEndpoint: pH

- Cc1nc(N[C@H](C)c2cccc(S(F)(F)(F)(F)F)c2)c2cn(C3(CF)CC3)c(=O)cc2n1 [Crystal form A of ethanesulfonate salt]: 1.6
- Cc1nc(N[C@H](C)c2cccc(S(F)(F)(F)(F)F)c2)c2cn(C3(CF)CC3)c(=O)cc2n1 [Crystal form B of citrate salt]: 2.5
- Cc1nc(N[C@H](C)c2cccc(S(F)(F)(F)(F)F)c2)c2cn(C3(CF)CC3)c(=O)cc2n1 [Crystal form A of fumarate salt]: 1.8
- Cc1nc(N[C@H](C)c2cccc(S(F)(F)(F)(F)F)c2)c2cn(C3(CF)CC3)c(=O)cc2n1 [Crystal form A of methanesulfonate salt]: 1.7

* * *

Entries and their measured pH follow.
- assayProcedure: Dynamic solubility in water, SGF, FaSSIF and FeSSIF
- conditionLabel: pH value of the filtrate; FeSSIF, 1 hour
Where a name gives a salt, the structure may show the parent alone.
measuredEndpoint: pH

- Cc1nc(N[C@H](C)c2cccc(S(F)(F)(F)(F)F)c2)c2cn(C3(CF)CC3)c(=O)cc2n1 [Crystal form B of citrate salt]: 4.8
- Cc1nc(N[C@H](C)c2cccc(S(F)(F)(F)(F)F)c2)c2cn(C3(CF)CC3)c(=O)cc2n1 [Crystal form A of methanesulfonate salt]: 4.8
- Cc1nc(N[C@H](C)c2cccc(S(F)(F)(F)(F)F)c2)c2cn(C3(CF)CC3)c(=O)cc2n1 [Crystal form A of ethanesulfonate salt]: 4.8
- Cc1nc(N[C@H](C)c2cccc(S(F)(F)(F)(F)F)c2)c2cn(C3(CF)CC3)c(=O)cc2n1 [Crystal form A of fumarate salt]: 4.6

* * *

- assayProcedure: Dynamic solubility in water, SGF, FaSSIF and FeSSIF
- conditionLabel: pH value of the filtrate; H2O, 1 hour
Where a name gives a salt, the structure may show the parent alone.
measuredEndpoint: pH

* Cc1nc(N[C@H](C)c2cccc(S(F)(F)(F)(F)F)c2)c2cn(C3(CF)CC3)c(=O)cc2n1 [Crystal form A of ethanesulfonate salt] | 2.9
* Cc1nc(N[C@H](C)c2cccc(S(F)(F)(F)(F)F)c2)c2cn(C3(CF)CC3)c(=O)cc2n1 [Crystal form A of fumarate salt] | 4.2
* Cc1nc(N[C@H](C)c2cccc(S(F)(F)(F)(F)F)c2)c2cn(C3(CF)CC3)c(=O)cc2n1 [Crystal form A of methanesulfonate salt] | 3.5
* Cc1nc(N[C@H](C)c2cccc(S(F)(F)(F)(F)F)c2)c2cn(C3(CF)CC3)c(=O)cc2n1 [Crystal form B of citrate salt] | 3.5
